Value source: the supplement of paper PMC10127200

# System: A549
# ASSAY_DETAILS: Euclidean distance of Cell Painting phenotypic profile (signed KS, 77 features) to DMSO centroid (dimensionless distance); 5 or 10 uM (library dependent); higher = stronger phenotypic change vs DMSO (phenoactivity)
# TEST_PARAMETERS: 48 h
Counter-ions that a name gives are not always drawn.
READOUT: Euclidean distance
No unit in the answer, only the number.

Cc1ccc(-n2sc(=O)n(Cc3ccc(F)cc3)c2=O)cc1: 0.968
CCN1CCN(Cc2ccc(-c3cc4c(N[C@H](C)c5ccccc5)ncnc4[nH]3)cc2)CC1: 3.77
COc1ccc(C(=O)NCc2ccc(OCCN(C)C)cc2)cc1OC [Itopride hydrochloride]: 0.807
O=C(O)c1cccnc1Nc1cccc(C(F)(F)F)c1: 1.01
COc1ccccc1N1CCN(CCN2C(=O)CC3(CCCC3)CC2=O)CC1: 1.72
CO[C@H]1C[C@@H]2CC[C@@H](C)[C@@](O)(O2)C(=O)C(=O)N2CCCC[C@H]2C(=O)O[C@H]([C@H](C)C[C@@H]2CC[C@@H](O)[C@H](OC)C2)CC(=O)[C@H](C)/C=C(\C)[C@@H](O)[C@@H](OC)C(=O)[C@H](C)C[C@H](C)/C=C/C=C/C=C/1C [Rapamycin (Sirolimus)]: 1.97

Consider the additional compound presented here.
GET /value?item= CC(=O)Oc1ccccc1C(=O)Nc1ncc([N+](=O)[O-])s1 [Nitazoxanide] &field=Euclidean distance returns 1.18

====

# System: DU145
# ASSAY_DETAILS: Euclidean distance of Cell Painting phenotypic profile (signed KS, 77 features) to DMSO centroid (dimensionless distance); 5 or 10 uM (library dependent); higher = stronger phenotypic change vs DMSO (phenoactivity)
# TEST_PARAMETERS: 48 h
Counter-ions that a name gives are not always drawn.
# if value of Euclidean distance reaches 0.9, tag rule met; if it stays below, tag rule not met

As a guide, the following entries are already answered.
CSc1ccc(C(=O)/C=C/c2cc(C)c(OC(C)(C)C(=O)O)c(C)c2)cc1: rule not met
C[C@@H]1O[C@@H](OC[C@H]2O[C@@H](Oc3c(-c4ccc(OCCO)c(OCCO)c4)oc4cc(OCCO)cc(O)c4c3=O)[C@H](O)[C@@H](O)[C@@H]2O)[C@H](O)[C@H](O)[C@H]1O: rule not met
CCCC(=O)O[C@]1(C(=O)COC(C)=O)CC[C@H]2[C@@H]3C[C@H](F)C4=CC(=O)C=C[C@]4(C)[C@@]3(F)[C@@H](O)C[C@@]21C [Difluprednate]: rule met

IN: State whether the measured Euclidean distance reaches 0.9, counting equality as reaching it, for O=C(O)COCCN1CCN([C@H](c2ccccc2)c2ccc(Cl)cc2)CC1 [Levocetirizine Dihydrochloride]
OUT: rule not met

IN: State whether the measured Euclidean distance reaches 0.9, counting equality as reaching it, for `C[C@H](CS)C(=O)N1CCC[C@H]1C(=O)O`
OUT: rule not met

IN: State whether the measured Euclidean distance reaches 0.9, counting equality as reaching it, for CC(C)(Oc1ccc(C2CC2(Cl)Cl)cc1)C(=O)O (configuration not stated) [Ciprofibrate]
OUT: rule not met

====

# Tested on: 786-O
# ASSAY_DETAILS: Euclidean distance of Cell Painting phenotypic profile (signed KS, 77 features) to DMSO centroid (dimensionless distance); 5 or 10 uM (library dependent); higher = stronger phenotypic change vs DMSO (phenoactivity)
# TEST_PARAMETERS: 48 h
Counter-ions that a name gives are not always drawn.
# if value of Euclidean distance reaches 2, tag Condition met; if it stays below, tag Condition not met

COC(=O)N[C@H](C(=O)N1CCC[C@H]1c1nc(-c2ccc3c(c2)O[C@@H](c2ccccc2)n2c-3cc3cc(-c4c[nH]c([C@@H]5CCCN5C(=O)[C@@H](NC(=O)OC)C(C)C)n4)ccc32)c[nH]1)C(C)C: Condition met
Cc1nc(C)c(Cl)c(O)c1Cl: Condition not met
O=[N+]([O-])c1ccc2c(c1)S(=O)(=O)C=C2: Condition met

IN: State whether the measured Euclidean distance reaches 2, counting equality as reaching it, for `COC(=O)c1cc(OC)c2c(c1-c1c(CO)cc(OC)c3c1OCO3)OCO2`
OUT: Condition not met

IN: State whether the measured Euclidean distance reaches 2, counting equality as reaching it, for CN(C)CCOC(=O)COc1ccc(Cl)cc1 [Meclofenoxate (Centrophenoxine) HCl]
OUT: Condition not met

IN: State whether the measured Euclidean distance reaches 2, counting equality as reaching it, for CNC(=O)c1ccc(N2C(=S)N(c3ccc(C#N)c(C(F)(F)F)c3)C(=O)C2(C)C)cc1F [Enzalutamide (MDV3100)]
OUT: Condition not met

IN: State whether the measured Euclidean distance reaches 2, counting equality as reaching it, for CN1CCC(=C2c3ccccc3CC(=O)c3sccc32)CC1 [Ketotifen Fumarate]
OUT: Condition not met

IN: State whether the measured Euclidean distance reaches 2, counting equality as reaching it, for `O=C(O)C(=O)O.[NH-][C@@H]1CCCC[C@H]1[NH-].[Pt+2]`
OUT: Condition met

IN: State whether the measured Euclidean distance reaches 2, counting equality as reaching it, for `Oc1nc(-c2ccc(C(F)(F)F)cc2)nc2c1CSCC2`
OUT: Condition not met

IN: State whether the measured Euclidean distance reaches 2, counting equality as reaching it, for `CC(C)OC(=O)CCC/C=C\C[C@@H]1[C@@H](/C=C/C(F)(F)COc2ccccc2)[C@H](O)C[C@@H]1O`
OUT: Condition not met

IN: State whether the measured Euclidean distance reaches 2, counting equality as reaching it, for CC1(C)OC[C@@H](COC(=O)CCc2ccc(OC[C@@H](O)CNCCNC(=O)N3CCOCC3)cc2)O1 [Landiolol hydrochloride]
OUT: Condition not met

IN: State whether the measured Euclidean distance reaches 2, counting equality as reaching it, for `CCCCOc1c(C(=O)c2c(F)cc(C)cc2F)c[nH]c2nncc1-2`
OUT: Condition not met

IN: State whether the measured Euclidean distance reaches 2, counting equality as reaching it, for `Cc1ccc(Nc2c(F)cccc2Cl)c(CC(=O)O)c1`
OUT: Condition not met

====

# Tested on: DU145
# ASSAY_DETAILS: Euclidean distance of Cell Painting phenotypic profile (signed KS, 77 features) to DMSO centroid (dimensionless distance); 5 or 10 uM (library dependent); higher = stronger phenotypic change vs DMSO (phenoactivity)
# TEST_PARAMETERS: 48 h
Listing of entries alongside the reported Euclidean distance.

CC(C)(C)c1cc(NC(=O)Nc2ccc(-c3cn4c(n3)sc3cc(OCCN5CCOCC5)ccc34)cc2)no1: 1.42

GET /value?item= `O=C(O)CCn1c2c(c3ccccc31)C[C@H](NS(=O)(=O)c1ccc(F)cc1)CC2` &field=Euclidean distance returns 0.969

GET /value?item= `CS(=O)(=O)CCC#N` &field=Euclidean distance returns 2.91

GET /value?item= `CC(C)(CCCCCC(O)CCCCCC(C)(C)C(=O)O)C(=O)O` &field=Euclidean distance returns 0.925

GET /value?item= `OCCn1cc(-c2cnc3nnn(Cc4ccc5ncccc5c4)c3n2)cn1` &field=Euclidean distance returns 0.98

GET /value?item= COc1ccccc1OCCNCC(O)COc1cccc2[nH]c3ccccc3c12 (stereo unspecified) [Carvedilol] &field=Euclidean distance returns 1.42

GET /value?item= Nc1ncnc2c1ncn2[C@@H]1O[C@H](CO)[C@@H](O)[C@@H]1O [Vidarabine monohydrate] &field=Euclidean distance returns 0.966

GET /value?item= `O=C(CCCN1CC=C(n2c(=O)[nH]c3ccccc32)CC1)c1ccc(F)cc1` &field=Euclidean distance returns 0.766

====

# Test system: DU145
# ASSAY_DETAILS: Euclidean distance of Cell Painting phenotypic profile (signed KS, 77 features) to DMSO centroid (dimensionless distance); 5 or 10 uM (library dependent); higher = stronger phenotypic change vs DMSO (phenoactivity)
# TEST_PARAMETERS: 48 h
Where a name gives a salt, the structure may show the parent alone.
READOUT: Euclidean distance
No unit in the answer, only the number.

O=c1c2ccccc2nc2n1CCc1c-2[nH]c2ccccc12 [Rutaecarpine]: 1.52
O=c1ccn([C@@H]2O[C@H](COP(=O)(O)OP(=O)(O)OP(=O)(O)O)[C@@H](O)[C@H]2O)c(=O)[nH]1 [UTP. Trisodium Salt]: 0.761
Nc1nc(N)c2nc(-c3cccc(O)c3)cnc2n1: 1.28
CO[C@H]1O[C@@H]2O[C@@]3(C)CC[C@H]4[C@H](C)CC[C@@H]([C@H]1C)[C@@]24OO3 [Artemether]: 0.712
CC(=O)OCC(=O)NCCCOc1cccc(CN2CCCCC2)c1 [Roxatidine Acetate HCl]: 0.769
CC1CNc2c(cccc2S(=O)(=O)N[C@@H](CCCNC(=N)N)C(=O)N2CC[C@@H](C)C[C@@H]2C(=O)O)C1 (stereo partly drawn) [Argatroban]: 0.62

Value sought: Euclidean distance, system DU145, item Nc1ncnc2c1ncn2[C@@H]1O[C@H](CO)[C@@H](O)[C@H]1O [Adenosine] . Result: 1.12

Value sought: Euclidean distance, system DU145, item CCCCOc1ccc(OCCCN2CCOCC2)cc1 [Pramoxine HCl] . Result: 1.08
